Data credit: paper PMC8569681

Please go through the items and note down their pKi.
Would you please state pKi, meaning minus log10 of the concentration in mol/L, as a bare number?

Find the measured pKi: item c1cnc(NCCCCCCNCc2c[nH]c3ccccc23)nc1 , target or system equine BChE (eqBChE) (Equus caballus, UniProt P81908).
7.00

Query for equine BChE (eqBChE) (Equus caballus, UniProt P81908): what pKi does the record show for COc1ccccc1CNCCCCCCNc1ccccn1 ?
5.46

Report pKi for COc1cc(CNCCCCCCNc2ncccn2)ccc1O tested on equine BChE (eqBChE) (Equus caballus, UniProt P81908).
Sequence (P81908 whole entry): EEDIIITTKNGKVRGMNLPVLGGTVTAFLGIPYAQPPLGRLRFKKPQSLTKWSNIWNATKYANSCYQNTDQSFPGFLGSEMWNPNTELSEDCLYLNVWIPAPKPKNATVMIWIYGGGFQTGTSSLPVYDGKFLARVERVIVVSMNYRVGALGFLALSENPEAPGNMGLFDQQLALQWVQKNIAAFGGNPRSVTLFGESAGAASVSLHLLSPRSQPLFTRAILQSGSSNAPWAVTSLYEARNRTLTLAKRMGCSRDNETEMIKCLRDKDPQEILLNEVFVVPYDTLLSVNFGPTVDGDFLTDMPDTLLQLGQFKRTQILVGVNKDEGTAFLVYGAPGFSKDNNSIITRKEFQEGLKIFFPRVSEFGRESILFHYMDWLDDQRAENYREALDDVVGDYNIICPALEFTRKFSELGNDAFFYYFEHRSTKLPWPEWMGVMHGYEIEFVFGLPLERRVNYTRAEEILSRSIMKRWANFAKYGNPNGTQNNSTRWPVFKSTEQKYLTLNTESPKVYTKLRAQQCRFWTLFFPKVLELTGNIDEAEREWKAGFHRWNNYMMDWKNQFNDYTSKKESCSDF
5.52

What value of pKi on equine BChE (eqBChE) (Equus caballus, UniProt P81908) does c1ccc(CNCCCCCCNc2ccccn2)cc1 have?
5.62

Form: Entry = COc1cc(CNCCCCCCNc2ccccn2)ccc1O | System = equine BChE (eqBChE) (Equus caballus, UniProt P81908) | pKi = ____
5.96

Given the entry Brc1ccc(CNCCCCCCNc2ccccn2)cc1 , what pKi was observed with equine BChE (eqBChE) (Equus caballus, UniProt P81908)?
5.46

* * *

# protocol description: Antioxidant activity, DPPH spectrophotometric method
# assay context: DPPH, absorbance at 515 nm
reported metric: reaction time (time for reaching the plateau) (min)
Your answer should be a plain number; it is taken to be in min.

Given O=C1O[C@H]([C@@H](O)CO)C(O)=C1O [ascorbic acid, reference compound] , state its recorded reaction time (time for reaching the plateau).
2

For the compound CC(C)(C)OC(=O)NCCCCCCNc1ncccn1 , what reaction time (time for reaching the plateau) is on record?
1

What does the record list as reaction time (time for reaching the plateau) for Oc1cccc(CNCCCCCCNc2ncccn2)c1O ?
1

Tell me the measured reaction time (time for reaching the plateau) of COc1cc(CNCCCCCCNc2ccccn2)ccc1O , please.
90

I would be grateful if you could share the reported reaction time (time for reaching the plateau) for COc1cc(CNCCCCCCNc2ncccn2)ccc1O .
90

* * *

# experimental system: Electrophorus electricus AChE (EeAChE) (Electrophorus electricus, UniProt O42275)
# Construct: purchased Sigma-Aldrich (Milan, Italy)
# Sequence (O42275 24-633): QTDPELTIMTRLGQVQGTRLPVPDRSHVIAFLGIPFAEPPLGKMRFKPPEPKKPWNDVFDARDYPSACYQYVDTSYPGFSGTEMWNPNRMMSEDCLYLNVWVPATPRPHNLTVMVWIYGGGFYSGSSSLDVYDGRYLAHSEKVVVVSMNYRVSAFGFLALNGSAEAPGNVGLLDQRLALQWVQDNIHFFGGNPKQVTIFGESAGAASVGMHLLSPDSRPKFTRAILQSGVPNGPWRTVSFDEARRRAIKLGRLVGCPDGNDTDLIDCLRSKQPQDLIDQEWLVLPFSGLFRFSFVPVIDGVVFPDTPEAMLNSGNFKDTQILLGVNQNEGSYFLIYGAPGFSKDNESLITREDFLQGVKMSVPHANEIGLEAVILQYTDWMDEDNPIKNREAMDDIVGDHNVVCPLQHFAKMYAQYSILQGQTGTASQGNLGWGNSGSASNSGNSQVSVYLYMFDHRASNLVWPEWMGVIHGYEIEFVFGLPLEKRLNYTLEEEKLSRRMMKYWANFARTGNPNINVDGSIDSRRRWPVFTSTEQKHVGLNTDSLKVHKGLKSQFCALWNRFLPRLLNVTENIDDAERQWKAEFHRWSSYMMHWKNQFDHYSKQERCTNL
# protocol description: Percent inhibition of EeAChE, Ellman's spectrophotometric method
# Type: biochemical
# assay context: read-out: % inhibition vs EeAChE ± SD (9 uM), 9 uM; supplement csv
reported metric: inhibition at 9 µM

Which inhibition at 9 µM is listed for c1ccc(CNCCCCCNc2ccccn2)cc1 ?
53.5%

Record request: inhibition at 9 µM value, item COc1ccccc1CNCCCCCNc1ncccn1
62.2%

So what does the record say about inhibition at 9 µM for Clc1ccc(CNCCCCCCNc2ncccn2)cc1 ?
29.9%

I'd like to know its inhibition at 9 µM. The molecule in question is COc1ccccc1CNCCCCCCNc1ncccn1
68.3%

Any idea what its inhibition at 9 µM is? The molecule is Brc1ccc(CNCCCCCCNc2ncccn2)cc1
23%

Find the recorded inhibition at 9 µM belonging to c1cnc(NCCCCCCNCc2c[nH]c3ccccc23)nc1 and report it.
69.2%

# inhibition at 9 µM lookup, item COc1ccccc1CNCCCCCCNc1ccccn1
58.6%

Look up inhibition at 9 µM for this molecule: Clc1cc(CNCCCCCCNc2ncccn2)cc(Cl)n1
18.5%

GET /values?readout=inhibition at 9 µM&item= Clc1cc(CNCCCCCNc2ncccn2)cc(Cl)n1
16.5%

Return reported inhibition at 9 µM; argument: Clc1ccc(CNCCCCCCNc2ccccn2)cc1
27.7%

Need inhibition at 9 µM of c1ccc(CNCCCCCCNc2ccccn2)cc1 , thanks.
73.3%
